target_entity: KDM5A (Homo sapiens)
Construct: Full length KDM5A enzyme was expressed and purified inhouse; made in house
Sequence (P29375 whole entry): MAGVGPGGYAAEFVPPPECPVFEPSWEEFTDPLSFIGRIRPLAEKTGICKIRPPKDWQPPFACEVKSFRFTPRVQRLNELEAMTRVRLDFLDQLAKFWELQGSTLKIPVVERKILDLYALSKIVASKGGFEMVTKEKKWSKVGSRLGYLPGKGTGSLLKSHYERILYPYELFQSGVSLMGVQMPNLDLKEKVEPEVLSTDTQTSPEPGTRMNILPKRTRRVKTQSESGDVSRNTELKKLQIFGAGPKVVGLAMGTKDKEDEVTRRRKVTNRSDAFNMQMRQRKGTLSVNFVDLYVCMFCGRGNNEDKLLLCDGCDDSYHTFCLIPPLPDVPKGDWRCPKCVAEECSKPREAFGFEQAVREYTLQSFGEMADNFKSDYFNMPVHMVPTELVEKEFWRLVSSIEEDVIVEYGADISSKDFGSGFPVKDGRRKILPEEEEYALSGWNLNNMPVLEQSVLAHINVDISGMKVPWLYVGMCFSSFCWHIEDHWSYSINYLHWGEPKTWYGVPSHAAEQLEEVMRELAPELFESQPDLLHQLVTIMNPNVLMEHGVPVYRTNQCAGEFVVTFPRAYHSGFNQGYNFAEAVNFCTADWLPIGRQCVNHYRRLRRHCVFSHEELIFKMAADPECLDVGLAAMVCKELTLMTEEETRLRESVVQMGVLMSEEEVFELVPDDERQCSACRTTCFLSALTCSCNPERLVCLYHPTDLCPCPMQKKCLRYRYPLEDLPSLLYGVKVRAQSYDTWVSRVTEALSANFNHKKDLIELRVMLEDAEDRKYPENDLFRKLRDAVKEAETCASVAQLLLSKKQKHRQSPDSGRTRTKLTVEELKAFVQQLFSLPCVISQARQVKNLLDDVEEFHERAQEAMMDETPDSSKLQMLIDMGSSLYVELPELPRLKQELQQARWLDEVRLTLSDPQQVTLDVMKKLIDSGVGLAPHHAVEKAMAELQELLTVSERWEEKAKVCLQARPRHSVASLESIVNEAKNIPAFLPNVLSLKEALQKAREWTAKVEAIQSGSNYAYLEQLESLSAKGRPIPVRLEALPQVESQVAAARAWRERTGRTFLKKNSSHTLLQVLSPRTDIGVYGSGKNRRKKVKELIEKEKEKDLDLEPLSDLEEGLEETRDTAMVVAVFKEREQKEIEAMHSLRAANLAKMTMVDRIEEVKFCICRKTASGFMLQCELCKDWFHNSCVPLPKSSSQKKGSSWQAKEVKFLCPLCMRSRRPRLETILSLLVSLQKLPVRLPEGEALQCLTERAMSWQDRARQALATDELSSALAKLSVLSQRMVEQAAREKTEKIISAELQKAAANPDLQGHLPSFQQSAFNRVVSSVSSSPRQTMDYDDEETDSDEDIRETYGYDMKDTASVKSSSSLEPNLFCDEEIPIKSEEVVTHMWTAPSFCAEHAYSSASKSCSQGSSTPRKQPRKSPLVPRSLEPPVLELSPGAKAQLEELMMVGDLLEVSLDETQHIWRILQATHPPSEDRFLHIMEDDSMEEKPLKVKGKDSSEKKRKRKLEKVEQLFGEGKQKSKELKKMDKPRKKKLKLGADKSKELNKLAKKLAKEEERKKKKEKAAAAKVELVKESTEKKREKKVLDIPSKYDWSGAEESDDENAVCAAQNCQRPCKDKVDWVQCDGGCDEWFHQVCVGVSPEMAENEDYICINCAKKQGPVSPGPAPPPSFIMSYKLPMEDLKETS
test_method_notes: KDM5 enzyme assay, KDM5A HTRF (Example 463)
Assay type: biochemical
assay_conditions: compounds of Examples 1-432; read-out: Example 463 Assay KDM5A HTRF IC50
property_label: pIC50
// returns pIC50 (minus log10 of molar concentration), number only

Problem: Tell me its pIC50 given CC(C)c1c(-c2cccc(-c3cccc(NS(C)(=O)=O)c3)c2)[nH]c2c(C#N)cnn2c1=O as the entry.
Result: 7.85

Problem: Tell me its pIC50 given CCOCCn1cc(-c2[nH]c3c(C#N)cnn3c(=O)c2C(C)C)cn1 as the entry.
Result: 7.66

Problem: Tell me its pIC50 given CC(C)c1c(-c2ccc(Oc3ccccc3)cc2)[nH]c2c(C#N)cnn2c1=O as the entry.
Result: 7.55

Problem: Tell me its pIC50 given C#CC(C)c1c(-c2cnn(C(C)C)c2)[nH]c2c(C#N)cnn2c1=O (stereo not drawn) as the entry.
Result: 7.44

Problem: Tell me its pIC50 given CC(=O)NCCCc1c(-c2ccccc2)[nH]c2c(C#N)cnn2c1=O as the entry.
Result: 5.10

Problem: Tell me its pIC50 given CC(C)(C)c1c[nH]c2c(C#N)cnn2c1=O as the entry.
Result: 7.42

Problem: Tell me its pIC50 given CCc1c(-c2cn[nH]c2)[nH]c2c(C#N)cnn2c1=O as the entry.
Result: 8.26

Problem: Tell me its pIC50 given CC(C)c1c(-c2cc(C3CC3)co2)[nH]c2c(C#N)cnn2c1=O as the entry.
Result: 8.14

Problem: Tell me its pIC50 given CC(C)c1c(-c2ccc(=O)n(C)c2)[nH]c2c(C#N)cnn2c1=O as the entry.
Result: 7.80

Problem: Tell me its pIC50 given CC(C)c1c(-c2ccn(CC3CC3)n2)[nH]c2c(C#N)cnn2c1=O (single isomer, unassigned) as the entry.
Result: 7.96

Problem: Tell me its pIC50 given CCc1c(C(=O)O)n(C)c2c(C#N)cnn2c1=O as the entry.
Result: 6.05

Problem: Tell me its pIC50 given CC#CCc1c(-c2ccccc2)[nH]c2c(C#N)cnn2c1=O as the entry.
Result: 5.27

Problem: Tell me its pIC50 given CC(C)c1c(-c2cccc(OCc3ccccc3)c2)[nH]c2c(C#N)cnn2c1=O as the entry.
Result: 7.36

Problem: Tell me its pIC50 given CC(C)c1c(-c2cc(F)cc(NC(=O)OCc3ccccc3)c2)[nH]c2c(C#N)cnn2c1=O as the entry.
Result: 7.72

Problem: Tell me its pIC50 given CC(C)c1c(-c2cnn(Cc3ccc(Oc4ccccc4)cc3)c2)[nH]c2c(C#N)cnn2c1=O as the entry.
Result: 8.26

Problem: Tell me its pIC50 given CC(C)c1c(-c2cc(C(F)(F)F)nn2C)[nH]c2c(C#N)cnn2c1=O as the entry.
Result: 7.41

Problem: Tell me its pIC50 given CC(C)c1c(-c2ccccc2F)[nH]c2c(C#N)cnn2c1=O as the entry.
Result: 7.85

Problem: Tell me its pIC50 given CCc1c(C(N)=O)n(C)c2c(C#N)cnn2c1=O as the entry.
Result: 5.36
